Assay: soluble on expression in E. coli; label from the status in PepcDB or PDB records
assayEndpoint: soluble on expression in E. coli

[[record]]
constructsequence = "GPGSMHFPSIVFRRHGGRQWMQQQSRDPFVLEARRRGYVARSAFKLLEMDDKFTLFSRGNTRVVVDIGCSPGSWLQVIRERCGDKCAVFGVDVLRVASTVTGAVCIQGDFTNPAVREELLARMVTVRAAGVVDVVTSDMCLNRGTGSTSDRQKQEELNRSALAFALEQLVPGGNFVCKVLGSPTAYEELRRDTCRWFVRTDICKPSSSRLTSDEAFMVCRGKREIPRDRSGGCDGTYGGRFGLDDWPGQLRGSPRRRKP"
assayendpoint = "soluble on expression in E. coli"
assayresult = "not soluble"

[[record]]
constructsequence = "MGSDKIHHHHHHMSQQLTFADSEFSSKRRQTRKEIFLSRMENLLPWSQLLDVIEPFYPKVGNGRRPYPLETMFRIHCMQQWYSLSDEATEDALYEIASMRQFALLSLDKAIPDRTTIMNFRHLLEKHKLTRKLFKTVNQWLSDSGVMMTQGTLVDATIIEAPSSTKNKNNERDPDMHQTKKGNQWHFGMKAYIGVDAKSGLTHTLVTTAANEHDLNQLDNLLHGEEEFVSGDAGYQGAQKREELKDTNVEWLIAERPGKIRALKKRPRKNKTIINIEYLKASIRAKVEHPFRIIKCQFGFIKARYKGLMKNDSQLAMLFTLANLFTVDQMLRRQPRSV"
assayendpoint = "soluble on expression in E. coli"
assayresult = "not soluble"

[[record]]
constructsequence = "MGSDKIHHHHHHLYFLDNQLAQQIVDRTMAIIGHNINVMNSQGVILGSGEPHRIGSTHEGALLAISQNRTVELNSASAASLQGVKPGINLPLHYQGEIIGVIGITGEPEHLKAFGELLKMTAEMIVEQANSLDVAQWRARQQEEFILQLIKPEGRDLNHLKIWAQRLDIDLEMPRVAAVLRISDDAGDELANSQLKTVLHLLETPSRGNLIAMTSMTELVILKPAFLDGKAWSAEAESLRIDRLLKRLPSELNARLKISLGHYFPATMDINRSYQTALETLNFGQQLHPEQSKYLYEDHALLVMLSGLKHDWRGEQLLRPFQRLIDRDKNALLRKTLASYLGHFGDQQACAKALFIHRNTLRYRLDKIAQITKVDIQKLDGLLQLYLGQVLLSRGQDQG"
assayendpoint = "soluble on expression in E. coli"
assayresult = "not soluble"

[[record]]
constructsequence = "MKEEKLVTLAIHSYEKAQILKSLLETEGIEAYLHNVNQIQPVISAGVRVRIKETDLPRALSIIEDNKWDQEDPKKRAKNTEEYVLIPVDFSEYTMKICELGFNFAARRGLRVVLMHVYISPFFSTPLTVGDTAVFQLSNEVSLRKEYQRVQR"
assayendpoint = "soluble on expression in E. coli"
assayresult = "not soluble"

[[record]]
constructsequence = "FESGLDLSDAEPDAGEATAYASKDLEEQLRSVSSVDELMTVLYPEYWKMYKCQLRKGGWQHNREQANLNSRTEETIKFAAAHYNTEILKSIDNEWRKTQCMPREVCIDVGKEFGVATNTFFKPPCVSVYRCGGCCNSEGLQCMNTSTSYLSKTLFEITVPLSQGPKPVTISFANHTSCRCMSKLDVYRQVHSIIRRSLPATLPQCQAANKTCPTNYMWNNHICRCLAQEDFMFSSDAGDDSTDGFHDICGPNKELDEETCQCVCRAGLRPASCGPHKELDRNSCQCVCKNKLFPSQCGANREFDENTCQCVCKRTCPRNQPLNPGKCACECTESPQKCLLKGKKFHHQTCSCYRRPCTNRQKACEPGFSYSEEVCRCVPSYWKRPQMS"
assayendpoint = "soluble on expression in E. coli"
assayresult = "not soluble"

[[record]]
constructsequence = "MTVVIGVLALQGAFIEHVRHVEKCIVENRDFYEKKLSVMTVKDKNQLAQCDALIIPGGESTAMSLIAERTGFYDDLYAFVNPSKVTWGTCAGLIYISQQLSNEAKLVKTLNLLKVKVKRNAFGRQAQSSTRICDFSNFIPHCNDFPATFIRAPVIEEVLDPEHVQVLYKLDGKDNGGQELIVAAKQKNNILATSFHPELAENDIRFHDWFIREFVLKNYSK"
assayendpoint = "soluble on expression in E. coli"
assayresult = "not soluble"

[[record]]
constructsequence = "MNGGSSIKVLGLVGSPKVDGNTAKMVDAILEGAAENGAETVIYNLASLDIKGCDACHRCQETGCCAIDDDMQELYRQIEEADAVVLGSPVYMWQMTAQTKLLIDRMTAFLKPNFSSRLDHKKLILVFTQGIPDRDAFNSYFEYTAGVLYYLGFDVLETIVAAGTDNLEVAFRPRLLEKSRELGKLISASNPVSPRYRRALEHHHHHH"
assayendpoint = "soluble on expression in E. coli"
assayresult = "not soluble"

[[record]]
constructsequence = "MNHVAVIGGGIIGASWAVVFARRGLEVTIVERDAACLAGLPARLAGMIERSASLLGAGEQPGDVAARIGATDALAAAVGRADYVQEAVSENLALKRTLFAELDALAPAHALLASSTSTYGASQFTEALAGRARCLVAHPMTPPHLSPVVEMAASAWTDPQVLAGAEAFMRSLGQHPVRIRKEIPGFVLNRLQGALLMEMFRVIADDVISPADADALISQGLGLRWATLGPLEGVDLNAPGGIADYLQRYGHIFNDMAVGQGLPAPVDAELISALDGAMRAALPLERLEAKRGWRDRAIAGVRVALHDYTGEKPLEHHHHHH"
assayendpoint = "soluble on expression in E. coli"
assayresult = "not soluble"


Q) Suppose we examine the sequence MGSDKIHHHHHHMAKIHMVLQGKGGVGKSMIAATIAQYKAGKGQKPLCIDTDPVNATFEGYKALNVRRLNIMDGDEINTRNFDALVEMIASAEGDVIIDNGASSFVPLSHYLISNQVPALLQDMGHELVVHTVVTGGQALVDTVSGFAQLASQFPAECLFVVWLNPYWGPIEHEGKGFEQLKAYTTNKGRVSAIIQIPALKEETYGRDFAEMLQDRRTFDEALADSALTIMTRQRLKIVKTQLFAQLENAAVL ; what soluble on expression in E. coli value has been reported?
A) not soluble

====

Assay: soluble on expression in E. coli; label from the status in PepcDB or PDB records
assayEndpoint: soluble on expression in E. coli

Some solved cases for reference:
[[record]]
constructsequence = "MLPFANYYISSPSVSEKNAINNNVNKRRKKKRAMMVYGGGGGGDDLAVVKAAAWAWYLRKEGKPIMREFDVTRAQRIPRPSRYKIEATKNMILSENRVLAENRVSSTKSPLWYTNYQFRGDQETYYSRLLDTYETKNISKRLNIDDSSFSTSLSSVLKHNGDDHHNHNRNDDYGFDDHGLLKKRNGSDSNTTTRSKTNNDKSYNGGFMKKVSKRSLWKGMIVMGPGSTVCGRSDDVASQAGRRTVKVAVAAEALVRSAASGSGKTQSGHC"
assayresult = "not soluble"

[[record]]
constructsequence = "ATTPSANQNWRLLRDESAQLRIADVLQRKEQFRPLAKRSFIFPASPQAVWLQVQLPAQKVPSWLWIFAPRVQYLDYYLVQDGQLVRDQHTGESRPFQERPLPSRSYLFSLPVDGKPMTLYVRMTSNHPLMAWFDQIDEAGLVGLE"
assayresult = "soluble"

[[record]]
constructsequence = "MDDIRKIERLAAASWPAYFQKSIGKWLLRANFGVTKRANSVWTSADMPEGDFQLEAELFYQSLGLPVCFHISNASPKGLDDALADSRYEKVDECFQMTALCRSIMSRTNDNSRFTYKWEQEPSSVWIDEFIQLEGFSPERHKGYKHIFERMPPCKTFFKMYDKESLTALGTVSVIDGYGGLSNIVVAEEHRGKGAGTQVIRVLTEWAKNNGAERMFLQVMKENLAAVSLYGKIGFSPISEHHYRIKRLEHHHHHH"
assayresult = "not soluble"

[[record]]
constructsequence = "CNFRSTETIVNWVNDHFSKIFSQQVDIESGAVSFHPSVHVIEKNESSTIQAVQFKNREQEARHLIEIINSELNRNPEQTIAVLVRTRTQLPEIISLLRQNNIPYQGTDIDLLANLVHLRDVWSLAHALLFPGNRLSWLSILHSPYVGLGLSDIHCIAQYNSRKSIYHNLLHLDKIQDISEEGRIRANFFIQIMNQALLCRSHSRLSDWIADTLKNLHVEKILDKAQLNDLEQLWMLLDQYEKEGRIPDMNEFLNEFNKLYAQQTTPSRLQIMTIHKSKGLEFDTVILPGLGSQANRGESPMLRWLKLPTQDHGNLLLVSPIKSANQDNCPLYDYLDQLDEEKSAYEAQRLLYVAVTRAKSRLYLLDHSAKSYKSS"
assayresult = "not soluble"

[[record]]
constructsequence = "DGSCTNTNSQLSANSKCEKSTLTNCYVDKSEVYGTTCTGSRFDGVTITTSTSTGSRISGPGCKISTCIITGGVPAPSAACKISGCTFSAN"
assayresult = "soluble"


We now examine a further sequence.
Q) Suppose we examine the sequence MGSDKIHHHHHHMNLKNTKAGFLLSAEHEKLPIAELNALIDIFSLEGNLNCFKNYVILDSSISEEIIKKMVKRGGYTNEGHVIFSESPIINQNVDETLENFFKSSETLDFPVERDETFAVRVLKLEKESPFNSMEIERKLGGIIKKKTSAQVSLKNPSKTVKVVISNDKMYTGIVIEKRDVEYFQNNRPHLRAYFHPGCIMPKLARCLVNLSRVKEGEIVLDPFCGTGGFLIEAGFLGCKLIGSDIDEQMVNGALLNLNTYDLSKQVISIKENDAKNVSKYLEALKIEKIDGIVTDPPYGISTSKKGDMLEIFEKIVDVLKDNDYLVFAAPNKMELDLNLVEFYEMRVHKSLTRYIHVYRKN ; what soluble on expression in E. coli value has been reported?
A) not soluble

The measurements presented in this section are drawn from the DeepSol protein solubility set.
